Data origin, for the record: patent US20250051347A1

Target: androgen receptor (AR) splicing variant AR-v7 (Homo sapiens, UniProt P10275)
Construct: The degradation activity of compounds on AR-v7 in 22RV1 cells; host or cells: 22RV1 cells
Assay: Degradation activity on androgen receptor splicing variant AR-v7 in 22RV1 cells (ELISA)
Type: cell-based
Conditions: AR-v7 degradation in 22RV1 cells, 48 h, class symbols
recorded endpoint: DC50

Completed entries (count: 8):
compound	DC50
CNC(=O)c1noc(COc2ccc(C(C)(C)c3ccc(OCCCNc4ccc5c(c4)C(=O)N(C4CCC(=O)NC4=O)C5=O)cc3)cc2)n1 (centres unmarked)	11 to 100 nM
CC(C)(c1ccc(OCc2ccnc(N3CC4(COC4)C3)n2)cc1)c1ccc(C(=O)NC2CN(c3ccc4c(c3)C(=O)N(C3CCC(=O)NC3=O)C4=O)C2)cc1 (centres unmarked)	< 10 nM
CC(=O)c1ccc(Oc2ccc(C(C)(C)c3ccc(O[C@H]4C[C@H](Nc5ccc6c(c5)C(=O)N(C5CCC(=O)NC5=O)C6=O)C4)cc3)cc2)cn1 (some centres unmarked)	< 10 nM
CC(C)(c1ccc(OCCCNc2ccc3c(c2)C(=O)N(C2CCC(=O)NC2=O)C3=O)cc1)c1ccc(OCc2ccnc(OC3CC3)n2)cc1 (centres unmarked)	11 to 100 nM
CC(C)(c1ccc(Oc2cnc(C(F)(F)F)nc2)cc1)c1ccc(O[C@H]2C[C@H](Nc3ccc4c(c3)C(=O)N(C3CCC(=O)NC3=O)C4=O)C2)cc1 (some centres unmarked)	11 to 100 nM
C[C@@H]1CN(c2nccc(COc3ccc(C(C)(C)c4ccc(O[C@H]5C[C@@H](Nc6ccc7c(c6)C(=O)N(C6CCC(=O)NC6=O)C7=O)C5)cc4)cc3)n2)C[C@H](C)N1 (some centres unmarked)	11 to 100 nM
CC(=O)c1nccc(COc2ccc(C(C)(C)c3ccc(N4CCC5(CCN(c6ccc7c(c6)C(=O)N(C6CCC(=O)NC6=O)C7=O)C5)C4)cc3)cc2)n1 (centres unmarked)	1000 to 5000 nM
Cc1noc(C)c1-c1nccc(COc2ccc(C(C)(C)c3ccc(O[C@H]4C[C@H](Nc5ccc6c(c5)C(=O)N(C5CCC(=O)NC5=O)C6=O)C4)cc3)cc2)n1 (some centres unmarked)	11 to 100 nM

Fill in DC50 for record CC(C)(c1ccc(OCC(=O)Nc2ccc3c(c2)C(=O)N(C2CCC(=O)NC2=O)C3=O)cc1)c1ccc(OCc2ccnc(N3CC4(COC4)C3)n2)cc1 (centres unmarked)
11 to 100 nM

Item CCC(CC)(c1ccc(OCCCNc2ccc3c(c2)C(=O)N(C2CCC(=O)NC2=O)C3=O)cc1)c1ccc(OCc2ccnc(C(C)=O)n2)cc1 (centres unmarked) [Example 439] : provide DC50
11 to 100 nM

Please report the measured DC50 for CC(C)(c1ccc(OCc2ccnc(N3CCOCC3)n2)cc1)c1ccc(OC2CC(Nc3ccc4c(c3)C(=O)N(C3CCC(=O)NC3=O)C4=O)C2)cc1 (centres unmarked) [Example 394]
11 to 100 nM

----------
Molecular target: androgen receptor (AR) splicing variant AR-v7 (Homo sapiens)
Construct: The degradation activity of compounds on AR-v7 in 22RV1 cells; host or cells: 22RV1 cells
Sequence (P10275 1-644 isoform P10275-3): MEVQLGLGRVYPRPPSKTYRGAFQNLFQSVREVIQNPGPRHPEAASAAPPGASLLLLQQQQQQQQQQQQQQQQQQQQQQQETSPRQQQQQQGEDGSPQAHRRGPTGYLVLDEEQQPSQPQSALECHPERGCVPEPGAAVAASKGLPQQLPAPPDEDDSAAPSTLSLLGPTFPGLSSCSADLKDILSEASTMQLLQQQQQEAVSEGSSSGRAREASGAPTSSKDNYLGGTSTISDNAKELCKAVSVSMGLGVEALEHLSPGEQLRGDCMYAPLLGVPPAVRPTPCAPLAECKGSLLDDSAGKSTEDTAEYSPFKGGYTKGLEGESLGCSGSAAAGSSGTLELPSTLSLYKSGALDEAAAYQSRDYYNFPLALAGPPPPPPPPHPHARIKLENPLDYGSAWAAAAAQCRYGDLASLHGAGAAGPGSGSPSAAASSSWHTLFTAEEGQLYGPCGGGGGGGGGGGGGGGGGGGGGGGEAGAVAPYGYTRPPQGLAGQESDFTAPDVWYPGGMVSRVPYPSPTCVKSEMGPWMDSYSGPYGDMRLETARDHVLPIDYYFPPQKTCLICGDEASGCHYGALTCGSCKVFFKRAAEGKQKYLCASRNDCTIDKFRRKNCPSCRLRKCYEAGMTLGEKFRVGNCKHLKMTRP
Assay: Degradation activity on androgen receptor splicing variant AR-v7 in 22RV1 cells (ELISA)
Format: cell-based
Conditions: AR-v7 degradation in 22RV1 cells, 48 h, class symbols
DC50 for assorted compounds

compound	assay target	assay value
CC(C)(c1ccc(Oc2ccc(-n3nccn3)nc2)cc1)c1ccc(OC2CC(Nc3ccc4c(c3)CN(C3CCC(=O)NC3=O)C4=O)C2)cc1 (centres unmarked)	androgen receptor (AR) splicing variant AR-v7 (Homo sapiens)	101 to 1000 nM
CC(C)(c1ccc(OCc2ccnc(N3CC4(CCOCC4)C3)n2)cc1)c1ccc(O[C@H]2C[C@@H](Nc3ccc4c(c3)C(=O)N(C3CCC(=O)NC3=O)C4=O)C2)cc1 (some centres unmarked)	androgen receptor (AR) splicing variant AR-v7 (Homo sapiens)	< 10 nM
CC(C)(c1ccc(OCc2ccnc(N3CC4(COC4)C3)n2)cc1)c1ccc(OC2CCC(Nc3ccc4c(c3)C(=O)N(C3CCC(=O)NC3=O)C4=O)C2)cc1 (centres unmarked)	androgen receptor (AR) splicing variant AR-v7 (Homo sapiens)	11 to 100 nM
CC(=O)c1ncc(Oc2ccc(C3(c4ccc(O[C@H]5C[C@H](Nc6ccc7c(c6)C(=O)N(C6CCC(=O)NC6=O)C7=O)C5)cc4)CCCCC3)cc2)cn1 (some centres unmarked)	androgen receptor (AR) splicing variant AR-v7 (Homo sapiens)	< 10 nM

Read the next record carefully.
Give me measured DC50, please, for this compound: CCN1CC(Oc2ncnc(Oc3ccc(C(C)(C)c4ccc(O[C@H]5C[C@@H](Nc6ccc7c(c6)C(=O)N(C6CCC(=O)NC6=O)C7=O)C5)cc4)cc3)c2F)C1 (some centres unmarked)
11 to 100 nM
